molecular target: IRAK4 (Homo sapiens, UniProt Q9NWZ3); construct: endogenous in cells; host or cells: OCI-LY10; test: IRAK4 MSD degradation in OCI-LY10; format: cell-based; conditions: OCI-LY10 cells, 24 hrs, Meso Scale Discovery
Sequence (Q9NWZ3 whole entry): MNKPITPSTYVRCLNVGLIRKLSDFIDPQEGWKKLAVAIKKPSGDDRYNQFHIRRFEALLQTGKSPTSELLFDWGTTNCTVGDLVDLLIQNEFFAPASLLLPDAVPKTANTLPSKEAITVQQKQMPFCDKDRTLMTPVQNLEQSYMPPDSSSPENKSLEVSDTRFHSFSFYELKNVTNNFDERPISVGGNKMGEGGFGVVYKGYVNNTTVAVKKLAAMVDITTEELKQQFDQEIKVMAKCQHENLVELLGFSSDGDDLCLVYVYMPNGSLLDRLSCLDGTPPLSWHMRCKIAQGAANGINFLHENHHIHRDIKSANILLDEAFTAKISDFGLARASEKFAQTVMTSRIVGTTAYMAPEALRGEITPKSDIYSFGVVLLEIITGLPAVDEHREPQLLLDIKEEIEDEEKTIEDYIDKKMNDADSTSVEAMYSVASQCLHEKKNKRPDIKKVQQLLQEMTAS
result_type: DC50

Cn1c(=O)n(C2CCC(=O)NC2=O)c2cccc(N3CC(COC[C@H]4CC[C@H](n5cc(NC(=O)c6cnn7ccc(N8C[C@H]9C[C@@H]8CO9)nc67)c(C(F)F)n5)CC4)C3)c21 (stereo partly shown) [I-111]    > 200 nM
Cn1nc(N2CCC(=O)NC2=O)c2cccc(N3CC(CN4CCN(C[C@H]5CC[C@H](n6cc(NC(=O)c7cnn8ccc(N9C[C@H]%10C[C@@H]9CO%10)nc78)c(C(F)F)n6)CC5)CC4)C3)c21 [I-91]    10 to 100 nM
COc1cc2nc([C@H]3CC[C@H](CN4CCC5(CN(c6cccc7c6n(C)c(=O)n7C6CCC(=O)NC6=O)C5)C(F)(F)C4)CC3)sc2cc1NC(=O)c1cncc(C#N)c1 (stereo partly shown) [I-110]    10 to 100 nM
COc1cc2nn([C@H]3CC[C@H](CN4CCC5(CN(c6cccc7c6n(C)c(=O)n7C6CCC(=O)NC6=O)C5)C(F)(F)C4)CC3)cc2cc1NC(=O)c1cncc(C)c1 (stereo partly shown) [I-243]    < 10 nM
Cc1nn(C2CCC(=O)NC2=O)c2cccc(N3CCN(C[C@@H]4COC5(C4)CN(C[C@H]4CC[C@H](n6cc(NC(=O)c7cnn8ccc(N9C[C@H]%10C[C@@H]9CO%10)nc78)c(C(F)F)n6)CC4)C5)CC3)c12 (stereo partly shown) [I-42]    < 10 nM
Cn1c(NC(=O)c2cccc(C(F)(F)F)n2)cc2cn([C@H]3CC[C@H](CN4CC[C@H](c5cccc6c5n(C)c(=O)n6C5CCC(=O)NC5=O)[C@@H](F)C4)CC3)nc2c1=O (stereo partly shown) [I-43]    > 200 nM

Briefly, DC50 measured for Cn1c(=O)n(C2CCC(=O)NC2=O)c2cccc([C@@H]3CCN(C[C@H]4CC[C@H](n5cc6cc(NC(=O)c7cccc(C(F)(F)F)c7)ncc6n5)CC4)C[C@H]3F)c21 (stereo partly shown) [I-244] : < 10 nM

Briefly, DC50 measured for COc1ccc2c(c1N1CC3(CCN(C[C@H]4CC[C@H](n5cc6cc(NC(=O)c7cncc(C#N)c7)c(C(C)(C)O)cc6n5)CC4)CC3(F)F)C1)n(C)c(=O)n2[C@@H]1CCC(=O)NC1=O (single isomer, unassigned) [I-235] : < 10 nM

Briefly, DC50 measured for Cn1c(=O)n(C2CCC(=O)NC2=O)c2ccc([C@H]3CCN(C[C@H]4CC[C@H](n5cc6cc(NC(=O)c7cncc(C(F)(F)F)n7)ccc6n5)CC4)C[C@@H]3F)cc21 (single isomer, unassigned) [I-351] : > 200 nM

Briefly, DC50 measured for COc1cc2nn([C@H]3CC[C@H](CN4CC[C@@H](c5cccc6c5n(C)c(=O)n6C5CCC(=O)NC5=O)[C@H](F)C4)CC3)cc2cc1NC(=O)c1cccc(C#N)c1 (stereo partly shown) [I-250] : < 10 nM
